Catalogue of compounds with associated normalized growth
Assay: chemical genetic growth profiling, strain panel (AID 1159580);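 also: tested at 20 µM; growth read once vehicle control cultures reached saturation at 30 °C; 1 = growth at the plate median or of vehicle wells; lower values mean less growth of the strain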
Conditions: S. cerevisiae deletion strains, growth OD, locus YNL128W, strain TEP1, active compounds read low
In all, about 5,500 compounds went through this assay and about 2,000 (36%) were called active. Another 18% or so got no clear call; they are omitted. Some of the results follow.
attribute_measured: normalized growth

INSERT INTO results (compound, recorded_measurement) VALUES
  ('Cn1c2c(c3ccccc31)/C(=N\OC(=O)c1ccc(Cl)cc1Cl)CCC2', 1.01),
  ('CSc1nc(NC(C)C)nc(NC(C)C)n1', 1.01),
  ('CCOC(=O)c1cnc2n(c1=O)CCS2', 0.997),
  ('CO[C@@H]1C[C@H](O[C@H]2CC[C@]3(C)C4CC[C@]5(C)[C@@H](C6=CC(=O)OC6)CC[C@]5(O)[C@@H]4CC[C@]3(O)C2)O[C@H](C)[C@@H]1O (some centres undefined)', 0.925),
  ('CN(C)CC[C@H](c1ccc(Cl)cc1)c1ccccn1', 1.01),
  ('Cc1ccc(C(C)C)c(O)c1C(=O)O', 1.01),
  ('C[N+]1(C)C[C@H](O)[C@H](C(=O)[O-])C1', 1.01),
  ('Cc1nnsc1C(=O)O/N=C1/CCSc2ccc(F)cc21', 1),
  ('O=C(NC1CCCCC1)N1CCN(c2ncccc2C(F)(F)F)CC1', 0.986),
  ('N#Cc1c(Cl)cccc1N1CCCC1', 0.922),
  ('O=C(NCCNCC(O)COc1ccc(O)cc1)N1CCOCC1 (centres undefined)', 0.998),
  ('CC(=O)O[C@]1(C(C)=O)CC[C@H]2[C@@H]3C=C(Cl)C4=CC(=O)[C@@H]5C[C@@H]5[C@]4(C)[C@H]3CC[C@@]21C', 0.993),
  ('O=C(/C=C(\O)c1ccccc1)c1ccccc1O', 0.855),
  ('Nc1nc2c(ncn2COC(CO)CO)c(=O)[nH]1', 0.992),
  ('O=C1NC(=S)NC(=O)C1=Cc1cccc2ccccc12', 0.991),
  ('COC(=O)c1cccnc1Sc1ccc(C)cc1', 0.98),
  ('Cc1c(OCC(F)(F)F)ccnc1CS(=O)c1nc2ccccc2[nH]1 (centres undefined)', 0.974),
  ('COc1cc(NC(=S)N2CCN(c3ccccc3OC)CC2)c(OC)cc1Cl', 1.02),
  ('NC(N)=NC(N)=Nc1cccc(Cl)c1', 1.03),
  ('CC1(C)C(O)CC(=O)C2(C)C1CC(O)C1(C)C2CCC2(C)C(c3ccoc3)OC(=O)C3OC321 (centres undefined)', 1.02),
  ('CCOC(=O)CC(SP(=S)(OC)OC)C(=O)OCC (centres undefined)', 1),
  ('NC(N)=Nc1ccc(Cl)cc1', 1.05),
  ('CC(=O)Oc1ccccc1C(=O)Oc1ccccc1C(=O)O', 1),
  ('O=C(O)CCC(=O)N1CCCC1C(=O)O (centres undefined)', 0.999),
  ('COc1ccc(-c2cc(=O)c3c(O)cc(O)c(-c4cc(-c5cc(=O)c6c(O)cc(O)cc6o5)ccc4OC)c3o2)cc1', 1.03),
  ('Oc1ccc2c3c1OC1[C@@H](O)CC[C@@]4(O)[C@@H](C2)N(CC2CCC2)CC[C@]314 (some centres undefined)', 1.03),
  ('COc1ccc(-c2cc(=O)c3c(O)cc(O)cc3o2)cc1O', 0.988),
  ('COc1ccc(-c2cc(=O)c3c(O)c(OC)c(O[C@H]4O[C@H](CO[C@@H]5O[C@@H](C)[C@H](O)[C@@H](O)[C@H]5O)[C@@H](O)[C@H](O)[C@H]4O)cc3o2)cc1', 1.03),
  ('Cc1c(C(N)=O)cc([N+](=O)[O-])cc1[N+](=O)[O-]', 0.965),
  ('COc1cc(C(=O)O)cc(OC)c1OC', 1.03),
  ('OC[C@H]1O[C@@H](n2cnc3c(NC4CCCC4)ncnc32)C(O)[C@H]1O (some centres undefined)', 1),
  ('NC(=O)c1cc([N+](=O)[O-])cc([N+](=O)[O-])c1', 0.982),
  ('C[C@@H](CO)NC(=O)C1C=C2c3cccc4[nH]cc(c34)C[C@H]2N(C)C1 (some centres undefined)', 1.03),
  ('CC(C)Nc1nc(Cl)nc(NC(C)C)n1', 1),
  ('COc1c(O)cc2c(c1O)[C@H]1O[C@H](CO)[C@@H](O)[C@H](O)[C@@H]1OC2=O', 1.01),
  ('COc1ccccc1N1CCN(CCN(C(=O)C2CCCCC2)c2ccccn2)CC1', 1.01),
  ('COc1cc(C(=O)N2CCOCC2)cc(OC)c1OC', 1),
  ('COc1cc(C)c2c(=O)c3c(O)cc(O)cc3oc2c1', 0.985),
  ('O=c1c(O)cccc2c(C3Oc4cc(O)cc(O)c4CC3O)cc(O)c(O)c12 (centres undefined)', 0.136),
  ('CNCCC(Oc1ccccc1C)c1ccccc1 (centres undefined)', 1.05),
  ('COc1nc(NC(C)C)nc(NC(C)C)n1', 1),
  ('Nc1nc(/C(=C/CC(=O)O)C(=O)N[C@@H]2C(=O)N3C(C(=O)O)=CCS[C@H]23)cs1', 1.01),
  ('CC(=O)N1CCN(c2ccc(OC[C@H]3CO[C@](Cn4ccnc4)(c4ccc(Cl)cc4Cl)O3)cc2)CC1', 0.16),
  ('CC(=O)c1ccccc1OC(=O)c1c(-c2c(Cl)cccc2Cl)noc1C', 1);
